// data source = patent US9102648B1

- System: Bombyx mori EcR (VP16 fusion, CVBE switch construct) (Bombyx mori, UniProt P49881)
- Sequence (P49881 86-606): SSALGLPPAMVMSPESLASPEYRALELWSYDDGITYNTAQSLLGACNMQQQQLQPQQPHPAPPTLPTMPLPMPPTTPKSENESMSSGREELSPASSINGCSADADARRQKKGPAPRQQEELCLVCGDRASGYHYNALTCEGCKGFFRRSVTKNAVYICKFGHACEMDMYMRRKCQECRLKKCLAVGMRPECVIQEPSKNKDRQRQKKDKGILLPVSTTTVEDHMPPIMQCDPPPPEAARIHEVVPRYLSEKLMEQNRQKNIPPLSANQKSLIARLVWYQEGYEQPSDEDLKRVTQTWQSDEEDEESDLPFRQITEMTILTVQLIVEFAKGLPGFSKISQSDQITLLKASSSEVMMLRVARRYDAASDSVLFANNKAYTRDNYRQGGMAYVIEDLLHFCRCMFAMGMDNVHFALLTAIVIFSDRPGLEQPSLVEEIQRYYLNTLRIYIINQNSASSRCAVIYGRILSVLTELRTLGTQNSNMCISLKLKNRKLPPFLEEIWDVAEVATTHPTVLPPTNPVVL
- Sequence (P19793 whole entry partner, the tested form may be a part): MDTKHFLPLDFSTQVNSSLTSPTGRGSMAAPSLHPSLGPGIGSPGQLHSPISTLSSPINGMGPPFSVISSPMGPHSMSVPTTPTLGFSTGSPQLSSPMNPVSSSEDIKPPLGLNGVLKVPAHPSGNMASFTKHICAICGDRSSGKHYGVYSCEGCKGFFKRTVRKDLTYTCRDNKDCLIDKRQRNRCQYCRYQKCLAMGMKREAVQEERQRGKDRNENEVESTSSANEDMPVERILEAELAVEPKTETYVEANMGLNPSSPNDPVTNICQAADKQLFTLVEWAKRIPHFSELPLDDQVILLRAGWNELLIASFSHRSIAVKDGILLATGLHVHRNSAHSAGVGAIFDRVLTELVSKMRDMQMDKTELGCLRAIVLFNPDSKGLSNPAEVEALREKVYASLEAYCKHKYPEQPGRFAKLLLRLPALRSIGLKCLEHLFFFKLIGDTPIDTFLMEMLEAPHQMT
- Assay Comment: Z3 Assay (HEK-293 cells with CVBE and 6XEcRE LacZ, β-galactosidase reporter)
- Condition Label: 33 uM ligand; ligand treated / DMSO treated cells; average of two wells
YES means recorded Fold Induction, Z3 Assay, 33 uM is 500 or above; NO means it is below 500.

- Smiles Representation: "CCc1c(OC)cccc1C(=O)NN(C(=O)c1cc(C)cc(C=NNC(=O)C(N)=O)c1)C(C)(C)C"
  System: "Bombyx mori EcR (VP16 fusion, CVBE switch construct) (Bombyx mori, UniProt P49881)"
  Class: "YES"
- Smiles Representation: "CCc1ccc(C(=O)NN(C(=O)c2ccc(OC)nc2OC)C(C)(C)C)c(F)c1"
  System: "Bombyx mori EcR (VP16 fusion, CVBE switch construct) (Bombyx mori, UniProt P49881)"
  Class: "YES"
- Smiles Representation: "CCc1c(OC)cccc1C(=O)NN(C(=O)c1ccc(Cl)cc1OC)C(C)(C)C"
  System: "Bombyx mori EcR (VP16 fusion, CVBE switch construct) (Bombyx mori, UniProt P49881)"
  Class: "NO"
- Smiles Representation: "CCc1c(OC)cccc1C(=O)NN(C(=O)c1ccc(F)cc1)C(C)(C)C"
  System: "Bombyx mori EcR (VP16 fusion, CVBE switch construct) (Bombyx mori, UniProt P49881)"
  Class: "NO"
- Smiles Representation: "COc1ccc(C(=O)NN(C(=O)c2cc(Cl)cc(Cl)c2)C(C)(C)C)cc1"
  System: "Bombyx mori EcR (VP16 fusion, CVBE switch construct) (Bombyx mori, UniProt P49881)"
  Class: "NO"
- Smiles Representation: "COc1cccc(C(=O)NN(C(=O)c2cc(C)cc(C)c2)C(C)(C)C)c1CF"
  System: "Bombyx mori EcR (VP16 fusion, CVBE switch construct) (Bombyx mori, UniProt P49881)"
  Class: "NO"

* * *

- System: GAL4 DBD (1-147)-CfEcR(DEF)/VP16AD-βRXREF-LmUSPEF (Choristoneura fumiferana)
- Assay Comment: cell-based
- Condition Label: maximum fold induction at any concentration relative to that of GS-E ligand; CHO 27-63 cells
MET means recorded 27-63 assay Rel Max FI is 0.9 or above; NOT MET means it is below 0.9.

- Compound: "Cc1c(C(=O)NN(C(=O)c2cccc(F)c2)C(C)(C)C)ccc2c1CCCO2"
  Class: "NOT MET"
- Compound: "CCc1c(OC)cccc1C(=O)NN(C(=O)c1cc(C)cc(C)c1)C(C)(C)C=NNC(=O)C(N)=O"
  Class: "MET"
- Compound: "COc1cccc(C(=O)NN(C(=O)c2ccc(Cl)cc2F)C(C)(C)C)c1C"
  Class: "NOT MET"
- Compound: "Cc1ccc([N+](=O)[O-])c(C(=O)N(NC(=O)c2ccc3c(c2C)CCCO3)C(C)(C)C)c1"
  Class: "NOT MET"
- Compound: "COc1cc(C(=O)N(NC(=O)c2ccc3c(c2C)OCCO3)C(C)(C)C#N)cc(OC)c1C"
  Class: "MET"
- Compound: "CCc1c(C(=O)NN(C(=O)c2cc(C)cc(C)c2)C(C)(C)C)ccc2c1OC(C)O2 (stereo not shown)"
  Class: "MET"
- Compound: "COc1cccc(C(=O)NN(C(=O)c2ccnnc2)C(C)(C)C)c1C"
  Class: "NOT MET"
- Compound: "CCc1c(OC)cccc1C(=O)NN(C(=O)c1cc(C)cc(COC(C)=O)c1)C(C)(C)C"
  Class: "MET"
- Compound: "CCc1c(C(=O)NN(C(=O)c2cccc(C)c2)C(C)(C)C)ccc2c1OCCO2"
  Class: "NOT MET"
- Compound: "COc1cccc(C(=O)NN(C(=O)c2cc(C)ccc2[N+](=O)[O-])C(C)(C)C)c1C"
  Class: "NOT MET"
- Compound: "CCc1c(OC)cccc1C(=O)NN(C(=O)c1ccccc1OC)C(C)(C)C"
  Class: "NOT MET"
- Compound: "COc1cc(C(=O)N(NC(=O)c2cccc(OC)c2C)C(C)(C)C)nc(OC)n1"
  Class: "NOT MET"
- Compound: "CCCCC(N(NC(=O)c1ccc(CC)cc1)C(=O)c1cc(OC)c(C)c(OC)c1)C(C)(C)C (stereo not shown)"
  Class: "NOT MET"
- Compound: "CCc1c(OC)cccc1C(=O)NN(C(=O)c1cc(C)cc(C)c1)C(C)(C)CO"
  Class: "MET"
- Compound: "CCCC(N(NC(=O)c1cccc(OC)c1C)C(=O)c1cc(C)cc(C)c1)C(C)(C)C (stereo not shown)"
  Class: "MET"
- Compound: "CCc1c(OC)cccc1C(=O)NN(C(=O)c1ccc(Cl)cc1[N+](=O)[O-])C(C)(C)C"
  Class: "NOT MET"
- Compound: "CC(C)(C)N(NC(=O)c1c(F)cccc1F)C(=O)c1cc(Cl)cc(Cl)c1"
  Class: "MET"
- Compound: "CCc1c(C(=O)NN(C(=O)c2cc(OC)c(C)c(OC)c2)C(C)(C)C)ccc2c1OCCO2"
  Class: "MET"
- Compound: "CCCC(N(NC(=O)c1ccc2c(c1C)OCCO2)C(=O)c1cc(OC)c(C)c(OC)c1)C(C)(C)C (stereo not shown)"
  Class: "MET"
- Compound: "Cc1c(C(=O)NN(C(=O)c2ccc(F)cc2)C(C)(C)C)ccc2c1OCCO2"
  Class: "NOT MET"
- Compound: "CCc1c(C(=O)NN(C(=O)c2ccccc2)C(C)(C)C)ccc2c1OCOC2"
  Class: "NOT MET"
- Compound: "COc1cc(C(=O)N(NC(=O)c2ccc3c(c2C)CCCO3)C(C)(C)C)cc(OC)c1C"
  Class: "MET"
- Compound: "COc1ccc(OC)c(C(=O)N(NC(=O)c2cccc(C)c2C)C(C)(C)C)c1"
  Class: "NOT MET"
- Compound: "CCc1c(C(=O)NN(C(=O)c2cccc(OC)c2)C(C)(C)C)ccc2c1OCCO2"
  Class: "NOT MET"
